- experiment: Pharmacokinetics (bioavailability) of formulations dosed to fasted Rhesus monkeys
- Format: in vivo
- condition-description: rhesus monkey, blood, po, 1 mg/kg, HME tablet formulation with 8% Compound II, 28% copovidone, 4% Vitamin E TPGS, single dose 1 mg/kg, 3 fasted Rhesus monkeys, read-out: AUC (0-24 hrs)
readout-kind: AUC(0-t) (µM·h)
Your answer should be a plain number; it is taken to be in µM·h.

Request: I am curious: what AUC(0-t) value has been reported for COc1cc(F)c(C(C)C)cc1-c1ccc(C(F)(F)F)cc1CN1C(=O)O[C@H](c2cc(C(F)(F)F)cc(C(F)(F)F)c2)[C@@H]1C [Compound II] ?
Response: 1.73

###

- experiment: Pharmacokinetics (bioavailability) of formulations dosed to fasted Rhesus monkeys
- Format: in vivo
- condition-description: rhesus monkey, blood, po, 1 mg/kg, HME tablet formulation with 10% Compound II, 35% copovidone, 5% Vitamin E TPGS, single dose 1 mg/kg, 3 fasted Rhesus monkeys, read-out: AUC (0-24 hrs)
readout-kind: AUC(0-t) (µM·h)
Your answer should be a plain number; it is taken to be in µM·h.

Request: I am curious: what AUC(0-t) value has been reported for COc1cc(F)c(C(C)C)cc1-c1ccc(C(F)(F)F)cc1CN1C(=O)O[C@H](c2cc(C(F)(F)F)cc(C(F)(F)F)c2)[C@@H]1C ?
Response: 1.62

###

- experiment: Pharmacokinetics (bioavailability) of formulations dosed to fasted Rhesus monkeys
- Type: in vivo
- condition-description: rhesus monkey, blood, po, 1 mg/kg, HME tablet formulation with 12% Compound II, 42% copovidone, 6% Vitamin E TPGS, single dose 1 mg/kg, 3 fasted Rhesus monkeys
readout-kind: Cmax (nM)
Your answer should be a plain number; it is taken to be in nM.

Request: I am curious: what Cmax value has been reported for COc1cc(F)c(C(C)C)cc1-c1ccc(C(F)(F)F)cc1CN1C(=O)O[C@H](c2cc(C(F)(F)F)cc(C(F)(F)F)c2)[C@@H]1C [Compound II] ?
Response: 130

###

- experiment: Pharmacokinetics (bioavailability) of formulations dosed to fasted Rhesus monkeys
- Format: in vivo
- condition-description: rhesus monkey, blood, po, 1 mg/kg, spray dried polymer formulation in capsules (8.8% Compound II, 35.2% HPMCAS-LF), single dose 1 mg/kg, 3 fasted Rhesus monkeys, 24 hours
readout-kind: Cmax (nM)
Your answer should be a plain number; it is taken to be in nM.

Request: I am curious: what Cmax value has been reported for COc1cc(F)c(C(C)C)cc1-c1ccc(C(F)(F)F)cc1CN1C(=O)O[C@H](c2cc(C(F)(F)F)cc(C(F)(F)F)c2)[C@@H]1C [Compound II] ?
Response: 120

###

- experiment: Pharmacokinetics (bioavailability) of formulations dosed to fasted Rhesus monkeys
- Assay type: in vivo
- condition-description: rhesus monkey, blood, po, 1 mg/kg, HME tablet formulation with 8% Compound II, 28% copovidone, 4% Vitamin E TPGS, single dose 1 mg/kg, 3 fasted Rhesus monkeys
readout-kind: Cmax (nM)
Your answer should be a plain number; it is taken to be in nM.

Request: I am curious: what Cmax value has been reported for COc1cc(F)c(C(C)C)cc1-c1ccc(C(F)(F)F)cc1CN1C(=O)O[C@H](c2cc(C(F)(F)F)cc(C(F)(F)F)c2)[C@@H]1C ?
Response: 100

###

- experiment: Pharmacokinetics (bioavailability) of formulations dosed to fasted Rhesus monkeys
- Format: in vivo
- condition-description: rhesus monkey, blood, po, 1 mg/kg, HME tablet formulation with 12% Compound II, 42% copovidone, 6% Vitamin E TPGS, single dose 1 mg/kg, 3 fasted Rhesus monkeys, read-out: AUC (0-24 hrs)
readout-kind: AUC(0-t) (µM·h)
Your answer should be a plain number; it is taken to be in µM·h.

Request: I am curious: what AUC(0-t) value has been reported for COc1cc(F)c(C(C)C)cc1-c1ccc(C(F)(F)F)cc1CN1C(=O)O[C@H](c2cc(C(F)(F)F)cc(C(F)(F)F)c2)[C@@H]1C [Compound II] ?
Response: 2.29

###

- experiment: Pharmacokinetics (bioavailability) of formulations dosed to fasted Rhesus monkeys
- Type: in vivo
- condition-description: rhesus monkey, blood, po, 1 mg/kg, HME tablet formulation with 10% Compound II, 35% copovidone, 5% Vitamin E TPGS, single dose 1 mg/kg, 3 fasted Rhesus monkeys
readout-kind: Cmax (nM)
Your answer should be a plain number; it is taken to be in nM.

Request: I am curious: what Cmax value has been reported for COc1cc(F)c(C(C)C)cc1-c1ccc(C(F)(F)F)cc1CN1C(=O)O[C@H](c2cc(C(F)(F)F)cc(C(F)(F)F)c2)[C@@H]1C ?
Response: 100

###

- experiment: Pharmacokinetics (bioavailability) of formulations dosed to fasted Rhesus monkeys
- Assay type: in vivo
- condition-description: rhesus monkey, blood, po, 1 mg/kg, spray dried polymer formulation in capsules (8.8% Compound II, 35.2% HPMCAS-LF), single dose 1 mg/kg, 3 fasted Rhesus monkeys, 24 hours, read-out: AUC0-24
readout-kind: AUC(0-t) (µM·h)
Your answer should be a plain number; it is taken to be in µM·h.

Request: I am curious: what AUC(0-t) value has been reported for COc1cc(F)c(C(C)C)cc1-c1ccc(C(F)(F)F)cc1CN1C(=O)O[C@H](c2cc(C(F)(F)F)cc(C(F)(F)F)c2)[C@@H]1C ?
Response: 1.99

###

- experiment: Pharmacokinetics (bioavailability) of formulations dosed to fasted Rhesus monkeys
- Assay type: in vivo
- condition-description: rhesus monkey, oral; non-polymer "conventional" control formulation (5% Compound II, 5% SDS, 1.5% HPC-EXF, 1% croscarmellose sodium, 87.5% lactose), wet granulation, dry-filled capsule; single 1 mg/kg dose; 3 fasted Rhesus monkeys; blood
readout-kind: Tmax (h)
Your answer should be a plain number; it is taken to be in h.

Request: I am curious: what Tmax value has been reported for COc1cc(F)c(C(C)C)cc1-c1ccc(C(F)(F)F)cc1CN1C(=O)O[C@H](c2cc(C(F)(F)F)cc(C(F)(F)F)c2)[C@@H]1C ?
Response: 18.7

###

- experiment: Pharmacokinetics (bioavailability) of formulations dosed to fasted Rhesus monkeys
- Assay type: in vivo
- condition-description: rhesus monkey, blood, po, 1 mg/kg, HME tablet formulation with 8% Compound II, 28% copovidone, 4% Vitamin E TPGS, single dose 1 mg/kg, 3 fasted Rhesus monkeys
readout-kind: Tmax (h)
Your answer should be a plain number; it is taken to be in h.

Request: I am curious: what Tmax value has been reported for COc1cc(F)c(C(C)C)cc1-c1ccc(C(F)(F)F)cc1CN1C(=O)O[C@H](c2cc(C(F)(F)F)cc(C(F)(F)F)c2)[C@@H]1C [Compound II] ?
Response: 4
